Assay: PK of voruciclib, 2 weeks of daily dosing followed by 1 week without dosing in a 21-day cycle (Table 3)
Type: in vivo, human
Settings: human, plasma, oral, 75 mg, Day 1, 2 weeks daily dosing/1 week off, mean; read-out: Vz/F
observable: Vd/F (L)
State just the number; it will be interpreted in L.

Given the molecule CN1CC[C@@H](c2c(O)cc(O)c3c(=O)cc(-c4ccc(C(F)(F)F)cc4Cl)oc23)[C@@H]1CO [Voruciclib] , what is its reported Vd/F?
1280

---

Assay: PK of voruciclib, daily dosing continuously (Table 4)
Type: in vivo
Settings: human, plasma, oral, 150 mg, Day 1, daily dosing continuously, mean; read-out: AUC0-t
Source text: Voruciclib half life is designated as t½ in the tables (expressed in hours). Voruciclib volume of distribution is designated as Vz/F (expressed in liters).
observable: AUC(0-t) (ng·h/mL)
Give the quantity in ng·h/mL, number only.

Sample CN1CC[C@@H](c2c(O)cc(O)c3c(=O)cc(-c4ccc(C(F)(F)F)cc4Cl)oc23)[C@@H]1CO — what was its AUC(0-t)?
4850
